Source of measurements: PubChem BioAssay (NCI)

Test system: SR leukemia
Assay: NCI tumour cell line growth inhibition, 48 h
Please go through the items and note down their TGI.

input: Would you kindly share the measured TGI for CC1(C)OCC(COC(=O)NCn2cc(-c3ccccc3)nn2)O1 (stereo not drawn) ?
output: > 100 µM

input: Moving on to the next compound: CCN(CC)CCCC(C)Nc1c2ccc(Cl)cc2nc2cc(OC)c(OC)cc12 (stereo not drawn)
output: 13.6 µM

input: Moving on to the next compound: CN(C(=O)C12C3(C(=O)C(C)(C)C)C4C5(C#N)C3C1(C(=O)C(C)(C)C)C5C42C(=O)C(C)(C)C)C(C)(C)C (stereo not drawn)
output: > 50 µM

input: Moving on to the next compound: COC(=O)[C@@]1(O)CC(C)C=C1C=O (stereo partly drawn)
output: > 100 µM

input: Moving on to the next compound: CC(=O)OC1CC[C@@]2(C)C(CC[C@]3(C)C2CC=C2[C@@H]4CC(C)(C)CCC4(C)CCC23C)[C@@]1(C)C(=O)O (stereo partly drawn)
output: > 78.3 µM

input: Moving on to the next compound: "CN(C)CCCNc1cnc2cc3ccccc3cc2n1"
output: > 100 µM

input: Moving on to the next compound: "O=C1c2cc(-c3ccccc3)ccc2-c2c1c1ccc([N+](=O)[O-])cc1c(=O)n2CCCBr"
output: > 15.1 µM

input: Moving on to the next compound: "Cn1c(N=[N+]=[N-])cc(=O)n(C)c1=O"
output: > 100 µM

====

Tested on: SNB-19 CNS
Test: NCI tumour cell line growth inhibition, 48 h
Please go through the items and note down their TGI.

input: Would you kindly share the measured TGI for "Clc1ccc2nc(CC3CCCC3)[nH]c2c1" ?
output: 64 µM

input: Moving on to the next molecule: "COc1c2c(c(CC=C(C)C)c3oc(=O)c(-c4ccc(O)cc4)c(O)c13)OC(C)(C)C=C2"
output: > 100 µM

input: Moving on to the next molecule: Oc1ccc2ccccc2c1C1NN=C(c2ccccc2)S1 (configuration not stated)
output: > 100 µM

input: Moving on to the next molecule: "CCOC(=O)C1=NN(c2ccc(Cl)cc2)C2=CC(C)=NN(C)C(=S)N21"
output: > 100 µM

input: Moving on to the next molecule: "COc1ccc2c3c(c4ccccc4cc13)C(=O)N(CCN(C)CCN)C2=O"
output: 1.27 µM

input: Moving on to the next molecule: "COc1ccc2nc(NCN3C(=O)c4ccccc4C3=O)sc2c1"
output: > 100 µM

input: Moving on to the next molecule: "O=C1C(Cl)=C(Nc2cccc(O)c2)C(=O)N1Cc1ccc(Cl)cc1"
output: 23.5 µM

input: Moving on to the next molecule: "COc1ccc(C2=Nc3c/c(=C\c4c(O)[nH]c5ccc(Cl)cc45)ccc3=N2)cc1"
output: 5.85 µM

input: Moving on to the next molecule: "COc1cc(/C=c2/c3ccccc3n3c2cc(-c2ccccc2)[n+]3C)cc(OC)c1OC"
output: 17.9 µM

input: Moving on to the next molecule: "CCOC(=O)[C@H]1CSC[C@@H](C(=O)OC)N1"
output: > 100 µM

input: Moving on to the next molecule: "CO[C@H]1C[C@H](n2cc(C)c(=O)[nH]c2=O)O[C@@H]1CO"
output: > 100 µM

input: Moving on to the next molecule: "COc1ccc(CCNC(=O)CCCCCO)cc1OC"
output: > 100 µM

input: Moving on to the next molecule: "Cc1cc(Oc2cnc(=O)[nH]c2)cs1"
output: > 100 µM

input: Moving on to the next molecule: "CC(C)[NH-].CC(C)[NH-].O.O.[Cl][Pt+2][Cl]"
output: 314 µM

input: Moving on to the next molecule: "CN(C)CCCNc1cnc2cc3ccccc3cc2n1"
output: > 100 µM

input: Moving on to the next molecule: "CC(C)(C)c1cc(/C=C/C(=O)CC(=O)/C=C/c2cc(C(C)(C)C)c(O)c(C(C)(C)C)c2)cc(C(C)(C)C)c1O"
output: > 50 µM

input: Moving on to the next molecule: "COc1ccc(N=N/C(=N/NC(=O)c2cc(Cl)ccc2C(=O)c2ccccc2)c2ccc(N(CCC#N)CCC#N)cc2C)cc1"
output: > 100 µM

input: Moving on to the next molecule: "CCOC(=O)Cn1nnc2cc(Nc3nc4ccccc4nc3C(=O)OCC)ccc21"
output: > 100 µM

input: Moving on to the next molecule: CN(C(=O)C12C3(C(=O)C(C)(C)C)C4C5(C#N)C3C1(C(=O)C(C)(C)C)C5C42C(=O)C(C)(C)C)C(C)(C)C (configuration not stated)
output: > 50 µM

input: Moving on to the next molecule: "COc1ccc(-c2cn(-c3cccc(C(=O)/C=C/c4ccc(O)c(OC)c4)c3)c(=O)[nH]2)cc1"
output: 43.9 µM

input: Moving on to the next molecule: "CNc1ncnc2c1nnn2C"
output: > 100 µM

input: Moving on to the next molecule: "COc1ccc(-c2nnc(-c3ccncc3)o2)cc1"
output: > 100 µM

====

Tested on: NCI-H460 lung
Hi! Could you answer with just one of these? T (active), F (inactive)

input: Hi team, can someone confirm the assay call for "COc1ccc(-c2nn(-c3cccc(Cl)c3)cc2-c2c(C#N)c(=O)n3[nH]c(-c4ccc(C)cc4)nc3c2C#N)cc1" ?
output: F

input: Moving on to the next molecule: "COc1ccc([I+]c2ccccc2)cc1"
output: F

input: Moving on to the next molecule: "C[C@@H](NC(=O)[C@@H](CC(=O)N1CCC(N2CCCCC2)CC1)N1C(=O)[C@@H](N2C(=O)OC[C@@H]2c2ccccc2)[C@H]1/C=C/c1cccc(Cl)c1)c1ccccc1"
output: F

input: Moving on to the next molecule: "COc1cc2c(cc1OC)-c1ccc3cc4c(cc3c1N(CCN(C)C)C2)OCO4"
output: T

input: Moving on to the next molecule: "COc1ccc2c3c(c4ccccc4cc13)C(=O)N(CCN(C)CCN)C2=O"
output: T

input: Moving on to the next molecule: "CC1(C)N=C(N)N=C(N)N1c1ccc(CCc2ccc(Cl)cc2S(=O)(=O)F)c(Cl)c1"
output: F

input: Moving on to the next molecule: O=C(O)CC(NC(=O)CP(=O)(O)O)C(=O)O.[NH-]C1CCCCC1[NH-].[Pt+2] (stereo not drawn)
output: F

input: Moving on to the next molecule: "CN[C@@H]1C[C@H]2O[C@@](C)([C@@H]1OC)n1c3ccccc3c3c4c(c5c6ccccc6n2c5c31)C(=O)N[C@H]4O"
output: T

input: Moving on to the next molecule: "CN1CCN(C(=O)c2c(NC(=O)NS(=O)(=O)c3ccccc3)sc3c2CCCCC3)CC1"
output: F

input: Moving on to the next molecule: "COc1cc(F)cc([C@@H](CO)NC(=O)[C@@H](C)N2Cc3ccc(-c4nc(NC5CCOCC5)ncc4Cl)cc3C2=O)c1"
output: F

input: Moving on to the next molecule: "CN1C(=O)C(=Cc2cn(Cc3ccccc3)c3ccccc23)C(=O)N(C)C1=O"
output: F

input: Moving on to the next molecule: "CCCCOC(=O)c1ccc(NC(=O)CCl)cc1"
output: F

input: Moving on to the next molecule: Oc1ccc2ccccc2c1C1NN=C(c2ccccc2)S1 (stereo not drawn)
output: T

====

Please go through the items and note down their TGI.
System: HCT-116 colon
Assay: NCI tumour cell line growth inhibition, 48 h

input: Would you kindly share the measured TGI for "CC(=O)OCc1ccc(O)c(C=O)c1" ?
output: > 100 µM

input: Moving on to the next compound: "CCOC(=O)[C@H]1CSC[C@@H](C(=O)OC)N1"
output: > 100 µM

input: Moving on to the next compound: CCCCCCCC(=O)OCC(C[As](=O)(O)O)OC(=O)CCCCCCC (configuration not stated)
output: 30.3 µM

input: Moving on to the next compound: "COc1ccc(/C=N/n2cnc3c(c2=O)S/C(=C2/SC(=S)N(c4ccc(C)cc4)C2=O)N3c2ccccc2)cc1"
output: > 100 µM

input: Moving on to the next compound: "N#CCOc1cccc(C2(N3CC=CCC3)CCCCC2)c1"
output: > 100 µM

input: Moving on to the next compound: "O=[N+]([O-])c1ccc2nc(/C=C(\O)c3ccccc3)c(/C=C(\O)c3ccccc3)nc2c1"
output: > 37.8 µM

input: Moving on to the next compound: "COP(=O)(OC)c1ccc(NCc2cc(O)ccc2O)cc1"
output: > 59.7 µM

input: Moving on to the next compound: COc1ccc2c(c1)CC1(O)COc3cc(OC)ccc3C1O2 (configuration not stated)
output: > 100 µM

input: Moving on to the next compound: CC1(C)O[C@H]2OC(CO)C(OS(C)(=O)=O)[C@H]2O1 (some centres not stated)
output: > 100 µM

input: Moving on to the next compound: "CCCCN=C(NC#N)N(Cc1ccccc1)Cc1ccccc1"
output: 39.5 µM

input: Moving on to the next compound: CCCC(=O)Nc1cc(/C=C/C(=O)N2CC(CCl)c3c2cc([N+](=O)[O-])c2ccccc32)n(C)c1 (configuration not stated)
output: > 100 µM

input: Moving on to the next compound: "COc1ccc2c(c1)c1nc3cc(C)c(C)cc3nc1n2CCN(C)C"
output: 1.64 µM

input: Moving on to the next compound: "CC1=Nc2c(C#N)ncn2N=C(C)C1"
output: > 100 µM

input: Moving on to the next compound: Cc1ccc(C(=O)/C(=C\c2ccc([N+](=O)[O-])cc2)S(=O)Cc2ccc(F)cc2)cc1 (configuration not stated)
output: 1.79 µM

input: Moving on to the next compound: "O=S(=O)(O)c1cc(Nc2ccnc3ccccc23)c2c(S(=O)(=O)O)cc(S(=O)(=O)O)cc2c1"
output: > 100 µM

input: Moving on to the next compound: CCCCC1(N=[N+]=[N-])C(=O)C2C=CC=C3c4ccccc4N(C1=O)C32 (configuration not stated)
output: > 31.6 µM

input: Moving on to the next compound: "O=C(Cn1c(=O)oc2ccc(C(=O)c3ccccc3Cl)cc21)c1ccc([N+](=O)[O-])cc1"
output: 35.6 µM

input: Moving on to the next compound: "COc1ccc(-c2nn(-c3cccc(Cl)c3)cc2-c2c(C#N)c(=O)n3[nH]c(-c4ccc(C)cc4)nc3c2C#N)cc1"
output: 6 µM

input: Moving on to the next compound: "CCCCOC(=O)c1ccc(NC(=O)CCl)cc1"
output: 2.86 µM

input: Moving on to the next compound: "c1ccc(CCN2CCN=C2Cc2ccccc2)cc1"
output: > 100 µM

input: Moving on to the next compound: "COc1ccc2c3c(c4ccccc4cc13)C(=O)N(CCN(C)CCN)C2=O"
output: 1.17 µM

input: Moving on to the next compound: "CN(C)C(=S)/N=c1\ss/c(=N\C(=S)N(C)C)n1-c1ccc(Cl)cc1"
output: > 100 µM
